- conditionSummary: in MTBE, 295.15 K
observable: solubility (mole fraction)
Please respond with just the number, no unit label.

## Task Name the reported solubility (mole fraction) value associated with the compound C[C@@H]1CC[C@H]2[C@@H](C)C(=O)O[C@@H]3O[C@@]4(C)CC[C@@H]1[C@]32OO4
## Result 0.00234

---

- conditionSummary: in n-heptane, 314.15 K
observable: solubility (mole fraction)
Please respond with just the number, no unit label.

## Task Name the reported solubility (mole fraction) value associated with the compound C[C@@H]1CC[C@H]2[C@@H](C)C(=O)O[C@@H]3O[C@@]4(C)CC[C@@H]1[C@]32OO4
## Result 0.000383

Ref: BigSolDB 2.1
